Test system: HDAC2 (Homo sapiens, UniProt Q92769)
Construct: host or cells: SH-SY5Y cells
Sequence (Q92769 whole entry): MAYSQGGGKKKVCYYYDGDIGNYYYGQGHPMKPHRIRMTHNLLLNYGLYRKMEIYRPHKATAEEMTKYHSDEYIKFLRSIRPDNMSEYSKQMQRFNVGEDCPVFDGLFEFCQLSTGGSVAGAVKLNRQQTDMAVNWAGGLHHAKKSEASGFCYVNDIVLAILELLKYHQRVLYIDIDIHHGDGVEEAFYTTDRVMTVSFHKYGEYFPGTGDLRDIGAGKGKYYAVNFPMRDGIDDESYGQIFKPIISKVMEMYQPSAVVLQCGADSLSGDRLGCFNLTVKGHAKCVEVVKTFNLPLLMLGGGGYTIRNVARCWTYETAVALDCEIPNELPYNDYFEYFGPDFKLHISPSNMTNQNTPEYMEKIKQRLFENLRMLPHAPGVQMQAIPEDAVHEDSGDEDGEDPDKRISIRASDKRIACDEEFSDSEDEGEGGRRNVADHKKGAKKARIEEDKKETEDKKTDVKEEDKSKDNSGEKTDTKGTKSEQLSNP
Assay overview: HDAC2 Enzymatic Inhibition Assay in SH-SY5Y Cell Lysate with an Exogenous Substrate (HDAC-Glo 2)
Type: cell-based
Condition parameters: SH-SY5Y cells, five hours incubation, Table 3, class symbols
pIC50: −log10 of the molar value.
Reported property: pIC50

                                   compound      observed
0  CC(c1ncccn1)C1CN(C(=O)Nc2nc(-c3ccc(F)cc3)ccc2N)C1 (stereo not shown)  5.70 to 6.00
1  Nc1ccc(-c2cccs2)nc1NC(=O)N1CC(Cc2ncccn2)C1  6.00 to 6.30
2  Cc1ccn(CC2CN(C(=O)Nc3nc(-c4ccc(F)cc4F)ccc3N)C2)n1        < 5.70
3  COCc1ccc(CC2CN(C(=O)Nc3nc(-c4ccc(F)cc4F)ccc3N)C2)cn1        < 5.70
4  COC1(Cc2nccn2C)CN(C(=O)Nc2nc(-c3ccc(F)cc3)ccc2N)C1  5.70 to 6.00
5  Cc1cnc(CC2CN(C(=O)Nc3nc(-c4ccc(F)cc4F)ccc3N)C2)o1        < 5.70
6  Nc1ccc(-c2ccc(F)cc2)nc1NC(=O)N1CC(Cc2ccc(C(F)(F)F)cn2)C1        < 5.70
